Hello, the source for this data is patent US10316017B2, in case you need it.

Consider the following compounds; for each one, report its IC50.
molecular target: human Cot catalytic domain (30-397 amino acids) (Homo sapiens); construct: Purified recombinant human Cot catalytic domain (30-397 amino acids) was purchased from Cama Biosciences; purchased Cama Biosciences (so in the source); assay: High Throughput Cot Biochemical Assay (KinEASE TR-FRET); conditions: Cot biochemical HTRF (KinEASE TR-FRET) assay; read-out: IC50 HTRF
Sequence (P41279 30-397): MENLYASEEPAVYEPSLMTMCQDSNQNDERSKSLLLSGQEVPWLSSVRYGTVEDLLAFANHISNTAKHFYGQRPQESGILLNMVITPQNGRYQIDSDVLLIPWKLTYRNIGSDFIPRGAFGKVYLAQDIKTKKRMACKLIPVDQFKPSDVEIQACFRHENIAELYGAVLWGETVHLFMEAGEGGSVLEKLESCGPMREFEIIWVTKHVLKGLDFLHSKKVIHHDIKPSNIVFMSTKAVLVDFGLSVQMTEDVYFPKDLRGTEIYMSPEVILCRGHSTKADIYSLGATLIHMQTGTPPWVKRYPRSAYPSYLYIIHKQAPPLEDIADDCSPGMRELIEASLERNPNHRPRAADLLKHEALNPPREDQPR
Your answer is read as nM, so omit the unit and give the number.

**Q:** Provide measured IC50 value, entry: Cc1c(Cl)cccc1Nc1c(C#N)cnc2c(Cl)cc(N[C@@H](c3ccc(Cl)cc3)c3cn(C4CCN(C(C)(C)C)CC4)nn3)cc12 [Example 687]
**A:** 40

**Q:** Provide measured IC50 value, entry: C[C@@H](n1cc([C@@H](Nc2cc(Cl)c3ncc(C#N)c(Nc4cnc(F)c(F)c4)c3c2)c2ccc(F)cc2)nn1)C(F)(F)F [Example 406]
**A:** 212

**Q:** Provide measured IC50 value, entry: Cc1cccc(Nc2c(C#N)cnc3c(Cl)cc(N[C@@H](c4ccc(Cl)cc4)c4cn(C5CCN(C(C)(C)C)CC5)nn4)cc23)c1 [Example 741]
**A:** 122

###

Consider the following molecules; for each one, report its pIC50.
target: human Cot catalytic domain (30-397 amino acids) (Homo sapiens); construct: Purified recombinant human Cot catalytic domain (30-397 amino acids) was purchased from Cama Biosciences; purchased Cama Biosciences (so in the source); assay: High Throughput Cot Biochemical Assay (KinEASE TR-FRET); settings: Cot KinEASE TR-FRET (HTRF) biochemical assay, 400 μM ATP; read-out: IC50 HTRF
The value called pIC50 is obtained by taking minus log10 of the concentration in mol/L.

**Q:** Provide measured pIC50 value, entry: [2H][C@](Nc1cc(C)c2ncc(C#N)c(N[C@H](CC)c3ccccc3)c2c1)(c1ccc(F)cc1)c1cn(C2CC2)nn1
**A:** 6.61

**Q:** Provide measured pIC50 value, entry: [2H][C@](Nc1cc(C#N)c2ncc(C#N)c(N[C@H](CC)c3ccccc3)c2c1)(c1ccc(F)cc1)c1cn(C2CC2)nn1
**A:** 8.52

**Q:** Provide measured pIC50 value, entry: CC(=O)Nc1cccc([C@H](Nc2cc(C#N)c3ncc(C#N)c(NCC(C)(C)C)c3c2)c2cn(C3CC3)nn2)c1
**A:** 8.70

###

molecular target: human Cot catalytic domain (30-397 amino acids) (Homo sapiens); construct: Purified recombinant human Cot catalytic domain (30-397 amino acids) was purchased from Cama Biosciences; purchased Cama Biosciences (so in the source); test: High Throughput Cot Biochemical Assay (KinEASE TR-FRET); settings: Cot biochemical HTRF (KinEASE TR-FRET) assay; read-out: IC50 HTRF
Property name: log10(IC50) (log10 of the value in nM)
Reminder: these figures are log10 of reported IC50, in nM before transformation.

**Q:** Provide measured log10(IC50) value, entry: N#Cc1cnc2c(Cl)cc(N[C@@H](c3ccc(F)cc3)c3c[nH]nn3)cc2c1NCC1COC1
**A:** 3.17

**Q:** Provide measured log10(IC50) value, entry: CC[C@@H](Nc1c(C#N)cnc2c(Cl)cc(N[C@H](c3c[nH]nn3)c3cccc(F)c3F)cc12)c1ccccc1
**A:** 1.66

**Q:** Provide measured log10(IC50) value, entry: N#Cc1cnc2c(Cl)cc(N[C@@H](c3ccc(F)cc3)c3c[nH]nn3)cc2c1N[C@@H](CCO)c1ccccc1
**A:** 2.80

**Q:** Provide measured log10(IC50) value, entry: N#Cc1cnc2c(Cl)cc(N[C@@H](c3cccc(-c4ncco4)c3)c3cn(C4CC4)nn3)cc2c1Nc1cnc(F)c(F)c1
**A:** 0.48

**Q:** Provide measured log10(IC50) value, entry: N#Cc1cnc2c(Cl)cc(N[C@@H](c3ccccc3)c3cn([C@@H]4CCNC[C@H]4O)nn3)cc2c1Nc1ccc(F)c(Cl)c1
**A:** 0.00

**Q:** Provide measured log10(IC50) value, entry: CC(C)n1cc([C@@H](Nc2cc(Cl)c3ncc(C#N)c(NC4CCN(C)CC4)c3c2)c2ccccc2)nn1
**A:** 3.86

**Q:** Provide measured log10(IC50) value, entry: CC(Nc1c(C#N)cnc2c(Cl)cc(N[C@@H](c3ccc(Cl)cc3)c3cn(C4CCN(C(C)(C)C)CC4)nn3)cc12)c1cccnc1 (stereo partly shown)
**A:** 2.58

**Q:** Provide measured log10(IC50) value, entry: CC(C)(C)N1CCC(n2cc([C@@H](Nc3cc(Cl)c4ncc(C#N)c(NC56CCC7CC(CC(C7)C5)C6)c4c3)c3ccccc3)nn2)CC1
**A:** 2.16

**Q:** Provide measured log10(IC50) value, entry: CC(C)(C)N1CCC(n2cc([C@@H](Nc3cc(Cl)c4ncc(C#N)c(Nc5ccc(F)c(Cl)c5)c4c3)c3cccc(C(=O)N4CCCC4)c3)nn2)CC1
**A:** 0.30

**Q:** Provide measured log10(IC50) value, entry: Cn1ccnc1-c1cccc([C@H](Nc2cc(Cl)c3ncc(C#N)c(Nc4ccc(F)c(Cl)c4)c3c2)c2cn(C3CCN(C(C)(C)C)CC3)nn2)c1
**A:** 0.48

**Q:** Provide measured log10(IC50) value, entry: Cn1cnc(C(Nc2cc(Cl)c3ncc(C#N)c(Nc4ccc(F)c(Cl)c4)c3c2)c2ccc(F)c(F)c2)c1 (stereo not shown)
**A:** 2.10

**Q:** Provide measured log10(IC50) value, entry: CCN1CCC(n2cc([C@H](Nc3cc(Cl)c4ncc(C#N)c(Nc5ccc(F)c(Cl)c5)c4c3)c3ccc(F)cc3)nn2)CC1
**A:** 2.84

**Q:** Provide measured log10(IC50) value, entry: CCN1CCC(n2cc([C@H](c3ccccc3)N(CC)c3cc(Cl)c4ncc(C#N)c(Nc5ccc(F)c(Cl)c5)c4c3)nn2)CC1
**A:** 0.70
